Biological target: BRAF V600E (Homo sapiens, UniProt P15056, V600E)
Sequence (P15056 2-766 V600E): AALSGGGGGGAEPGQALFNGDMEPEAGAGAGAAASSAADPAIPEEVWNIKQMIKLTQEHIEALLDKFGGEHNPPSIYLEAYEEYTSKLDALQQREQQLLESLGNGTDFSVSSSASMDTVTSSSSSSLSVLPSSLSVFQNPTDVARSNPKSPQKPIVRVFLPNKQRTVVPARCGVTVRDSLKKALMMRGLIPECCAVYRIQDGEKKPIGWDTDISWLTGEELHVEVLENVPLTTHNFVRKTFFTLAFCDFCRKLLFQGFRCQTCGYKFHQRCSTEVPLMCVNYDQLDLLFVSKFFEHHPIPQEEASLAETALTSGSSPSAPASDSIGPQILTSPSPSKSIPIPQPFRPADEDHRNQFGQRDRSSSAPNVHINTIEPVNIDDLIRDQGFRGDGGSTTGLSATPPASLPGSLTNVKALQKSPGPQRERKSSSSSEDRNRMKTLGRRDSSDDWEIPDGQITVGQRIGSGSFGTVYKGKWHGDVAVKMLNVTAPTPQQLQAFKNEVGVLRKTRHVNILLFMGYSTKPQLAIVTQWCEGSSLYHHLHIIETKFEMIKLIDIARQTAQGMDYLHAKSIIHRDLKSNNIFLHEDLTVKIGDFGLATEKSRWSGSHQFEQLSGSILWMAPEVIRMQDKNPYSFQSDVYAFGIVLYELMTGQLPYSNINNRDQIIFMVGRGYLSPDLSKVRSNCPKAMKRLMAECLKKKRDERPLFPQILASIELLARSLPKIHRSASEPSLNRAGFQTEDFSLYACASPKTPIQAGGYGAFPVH
Test: […]-labeled acetoacetate radiometric binding to purified bead-bound BRAF
measuredAttribute: Kd

[[record]]
compound = "CC(=O)CC(=O)O [AA, acetoacetate]"
observedresult = "~92 µM"


====

Molecular target: BRAF V600D (Homo sapiens, UniProt P15056, V600D)
Sequence (P15056 whole entry V600D): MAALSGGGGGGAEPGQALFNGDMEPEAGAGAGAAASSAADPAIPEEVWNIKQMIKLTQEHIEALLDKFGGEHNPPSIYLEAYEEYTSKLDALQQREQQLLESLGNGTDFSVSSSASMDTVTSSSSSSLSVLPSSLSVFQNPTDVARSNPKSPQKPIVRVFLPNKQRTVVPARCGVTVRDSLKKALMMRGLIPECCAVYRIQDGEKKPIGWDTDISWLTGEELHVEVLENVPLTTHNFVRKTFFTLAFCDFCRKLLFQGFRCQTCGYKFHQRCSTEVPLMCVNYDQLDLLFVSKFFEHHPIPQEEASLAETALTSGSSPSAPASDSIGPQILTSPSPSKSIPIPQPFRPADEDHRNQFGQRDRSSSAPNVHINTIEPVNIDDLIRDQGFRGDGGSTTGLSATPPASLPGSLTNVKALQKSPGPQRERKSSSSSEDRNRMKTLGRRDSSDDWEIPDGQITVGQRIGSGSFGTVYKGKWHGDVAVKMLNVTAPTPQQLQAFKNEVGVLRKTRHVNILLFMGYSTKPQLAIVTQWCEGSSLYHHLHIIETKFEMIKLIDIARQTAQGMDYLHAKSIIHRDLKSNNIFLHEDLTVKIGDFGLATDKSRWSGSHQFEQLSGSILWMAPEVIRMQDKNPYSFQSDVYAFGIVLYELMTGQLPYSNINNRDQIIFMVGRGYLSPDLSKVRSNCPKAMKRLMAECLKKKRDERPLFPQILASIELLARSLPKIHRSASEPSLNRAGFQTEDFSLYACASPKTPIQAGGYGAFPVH
Assay: […]-acetoacetate competition binding
pKi: −log10 of the molar value.
measuredAttribute: pKi

[[record]]
compound = "CC(=O)C1C(=O)C=C(C)OC1=O (stereo not shown) [DHAA, dehydroacetic acid]"
systemundertest = "BRAF V600D (Homo sapiens, UniProt P15056, V600D)"
measuredattribute = "pKi"
observedresult = "~4.06"


====

Target: BRAF V600D (Homo sapiens, UniProt P15056, V600D)
Assay: […]-labeled acetoacetate radiometric binding to purified bead-bound BRAF
measuredAttribute: Kd

[[record]]
compound = "CC(=O)CC(=O)O [AA, acetoacetate]"
systemundertest = "BRAF V600D (Homo sapiens, UniProt P15056, V600D)"
measuredattribute = "Kd"
observedresult = "~93 µM"

